Taken from the Immune Epitope Database (IEDB).

Each entry below carries its recorded Kd.
biological target: HLA-B*18:01; experiment: IEDB peptide-MHC binding, purified MHC/competitive/radioactivity; filed as Kd, often an IC50 or EC50 that approximates it; bounds were set here for any values at or beyond the usual limits of such assays; conditions: source organism: Mammarenavirus machupoense

# Sequence Entry, Kd [µM]
records = [
    ("DESKKEINLL", 2.88),
    ("EEPVALLPLS", 15.5),
]

----------
biological target: HLA-B*44:03; experiment: IEDB peptide-MHC binding, purified MHC/competitive/radioactivity; filed as Kd, often an IC50 or EC50 that approximates it; bounds were set here for any values at or beyond the usual limits of such assays; conditions: source organism: Dengue virus 4 Philippines/H241/1956
pKd: −log10 of the molar value.

# Sequence Entry, pKd
measured = [
    ("SEAVNDSRF", 7.18),
]

----------
biological target: HLA-A*11:01; experiment: IEDB peptide-MHC binding, purified MHC/direct/fluorescence; filed as Kd, often an IC50 or EC50 that approximates it; bounds were set here for any values at or beyond the usual limits of such assays; conditions: source organism: Camelpox virus M-96
Readout Name: Kd

# Sequence Entry, Readout Name, Measured Result
rows = [
    ("YPAVINSNI", "Kd", "≥ 20 µM"),
]

----------
biological target: HLA-B*27:03; assay: IEDB peptide-MHC binding, purified MHC/direct/fluorescence; filed as Kd, often an IC50 or EC50 that approximates it; bounds were set here for any values at or beyond the usual limits of such assays; conditions: source organism: Cryptosporidium parvum Iowa II
Readout Name: Kd

# Sequence Entry, Readout Name, Measured Result
rows = [
    ("LPLESCFGV", "Kd", "≥ 20 µM"),
    ("MPMSMPIPM", "Kd", "≥ 20 µM"),
]

----------
biological target: HLA-C*15:02; assay: IEDB peptide-MHC binding, purified MHC/direct/fluorescence; filed as Kd, often an IC50 or EC50 that approximates it; bounds were set here for any values at or beyond the usual limits of such assays; settings: source organism: Clostridium botulinum A str. ATCC 3502
Readout Name: Kd (µM)

# Sequence Entry, Readout Name, Units Symbol, Measured Result
data = [
    ("YMIGYTAYY", "Kd", "µM", 4.02),
]

----------
target: HLA-A*02:01; assay: IEDB peptide-MHC binding, purified MHC/direct/fluorescence; filed as Kd, often an IC50 or EC50 that approximates it; bounds were set here for any values at or beyond the usual limits of such assays; conditions: source organism: Burkholderia mallei
pKd: −log10 of the molar value.
Readout Name: pKd

# Sequence Entry, Measured Result
rows = [
    ("RVVRPWGSY", "≤ 4.70"),
]

----------
molecular target: HLA-B*35:01; assay: IEDB peptide-MHC binding, purified MHC/competitive/radioactivity; filed as Kd, often an IC50 or EC50 that approximates it; bounds were set here for any values at or beyond the usual limits of such assays; details: source organism: Vaccinia virus WR
Entries and their Kd

# Sequence Entry, Kd
data = [
    ("SPGEIKPKF", "8.55 µM"),
    ("SPAHLINKLL", "≥ 51 µM"),
    ("LMIFISSFLL", "≥ 20.9 µM"),
    ("NPDQNTFPNI", "≥ 69.9 µM"),
    ("VPTNDHIPVV", "10.6 µM"),
    ("KPDGSDSMDV", "≥ 69.9 µM"),
    ("SFSLESDSIK", "≥ 69.9 µM"),
    ("TFFSYLMKDK", "≥ 69.9 µM"),
    ("KPDHDGNTPL", "3.28 µM"),
    ("LPNVDLTTM", "0.000159 µM"),
    ("KPAMSTYSDI", "≥ 63.7 µM"),
]

----------
target: HLA-A*02:03; assay: IEDB peptide-MHC binding, purified MHC/direct/fluorescence; filed as Kd, often an IC50 or EC50 that approximates it; bounds were set here for any values at or beyond the usual limits of such assays; conditions: source organism: Burkholderia mallei

# Sequence Entry, Kd
rows = [
    ("RVVRPWGSY", "≥ 20 µM"),
]

----------
biological target: HLA-A*33:01; test: IEDB peptide-MHC binding, purified MHC/competitive/radioactivity; filed as Kd, often an IC50 or EC50 that approximates it; bounds were set here for any values at or beyond the usual limits of such assays; settings: source organism: Vaccinia virus WR
Note to self: Kd under 3000 nM means Yes, ties and anything higher get No.

# Sequence Entry, Classification
measured = [
    ("VLPHLCLDY", "Yes"),
    ("LFLLFLEITY", "No"),
    ("SSKGLACYR", "Yes"),
    ("NVKKKNEGK", "No"),
    ("VFCNDHKGNR", "Yes"),
    ("GADPNACDK", "No"),
    ("TFFSYLMKDK", "Yes"),
    ("LTALLSCIR", "Yes"),
    ("TIQRFSSLR", "Yes"),
    ("YIYKSGKLVK", "No"),
    ("KSISSIFGY", "No"),
]

----------
target: HLA-A*31:01; assay: IEDB peptide-MHC binding, purified MHC/direct/fluorescence; filed as Kd, often an IC50 or EC50 that approximates it; bounds were set here for any values at or beyond the usual limits of such assays; details: source organism: Vibrio parahaemolyticus
pKd: −log10 of the molar value.

# Sequence Entry, System Under Test, pKd
records = [
    ("DQFSIPIRY", "HLA-A*31:01", "≤ 4.70"),
]

----------
target: HLA-A*31:01; assay: IEDB peptide-MHC binding, purified MHC/competitive/radioactivity; filed as Kd, often an IC50 or EC50 that approximates it; bounds were set here for any values at or beyond the usual limits of such assays; conditions: source organism: Dengue virus 1 Brazil/97-11/1997
# key: entry, value: Kd

# Sequence Entry, Kd (nM)
data = [
    ("RVIDPRRCLK", 0.766),
    ("STGSQLAKR", 215),
]

----------
Recorded pKd by entry
target: HLA-A*32:01; assay: IEDB peptide-MHC binding, purified MHC/competitive/radioactivity; filed as Kd, often an IC50 or EC50 that approximates it; bounds were set here for any values at or beyond the usual limits of such assays; conditions: source organism: Dengue virus 1 Brazil/97-11/1997
pKd: −log10 of the molar value.
Readout Name: pKd

# Sequence Entry, Measured Result
data = [
    ("IGILLTWLGL", "≤ 4.41"),
    ("SKGWNDWQQV", "≤ 4.25"),
    ("RSWNSGYDW", 7.27),
]

----------
target: HLA-B*51:01; experiment: IEDB peptide-MHC binding, purified MHC/direct/fluorescence; filed as Kd, often an IC50 or EC50 that approximates it; bounds were set here for any values at or beyond the usual limits of such assays; settings: source organism: Vibrio vulnificus YJ016
pKd: −log10 of the molar value.
Readout Name: pKd

# Sequence Entry, Readout Name, Measured Result
data = [
    ("SVFELSNFA", "pKd", "≤ 4.70"),
]

----------
molecular target: HLA-B*37:01; assay: IEDB peptide-MHC binding, purified MHC/competitive/fluorescence; bounds were set here for any values at or beyond the usual limits of such assays; details: source organism: Homo sapiens

# Sequence Entry, IC50
rows = [
    ("SYMMDDLELI", "≥ 20 µM"),
]

----------
target: HLA-B*53:01; assay: IEDB peptide-MHC binding, purified MHC/competitive/radioactivity; filed as Kd, often an IC50 or EC50 that approximates it; bounds were set here for any values at or beyond the usual limits of such assays; details: source organism: Dengue virus 3 Singapore/8120/1995
pKd: −log10 of the molar value.

# Sequence Entry, pKd
data = [
    ("MPGIFQTTTG", 6.26),
]

----------
molecular target: HLA-B*51:01; assay: IEDB peptide-MHC binding, purified MHC/direct/fluorescence; filed as Kd, often an IC50 or EC50 that approximates it; bounds were set here for any values at or beyond the usual limits of such assays; details: source organism: Burkholderia mallei

# Sequence Entry, Kd
records = [
    ("RVVRPWGSY", "≥ 20 µM"),
]

----------
Here, each record is paired with measured pKd data.
target: HLA-A*02:01; assay: IEDB peptide-MHC binding, purified MHC/direct/fluorescence; filed as Kd, often an IC50 or EC50 that approximates it; bounds were set here for any values at or beyond the usual limits of such assays; details: source organism: Bacillus anthracis
pKd: −log10 of the molar value.
Readout Name: pKd

# Sequence Entry, Readout Name, Rel, Measured Result
data = [
    ("DTVLFNAGL", "pKd", "≤", 4.70),
    ("ILNGGLGNA", "pKd", "=", 6.50),
]

----------
target: HLA-B*15:42; experiment: IEDB peptide-MHC binding, purified MHC/competitive/fluorescence; filed as Kd, often an IC50 or EC50 that approximates it; bounds were set here for any values at or beyond the usual limits of such assays; conditions: source organism: Cryptosporidium parvum Iowa II
Readout Name: Kd

# Sequence Entry, Measured Result
rows = [
    ("MPMSMPIPM", "≥ 5 µM"),
]
